# System: surinam grass
# assay comment: Test B pre/postemergence surinam grass
# Type: in vivo, Brachiaria decumbens
# run parameters: Preemergence, Rate 500 g/ha; scale 0 (no effect) to 10 (complete control)
Catalogue of B. signalgrass plant response rating readings, one per entry.
measurement label: B. signalgrass plant response rating

{"smiles": "CC(C)N(C(=O)n1oc(=O)n(Cc2ccccc2)c1=O)c1ccccc1", "recorded measurement": 5}
{"smiles": "Cc1cccc(C)c1-n1c(=O)on(C(=O)N(Cc2ccccc2)C(C)C)c1=O", "recorded measurement": 0}
{"smiles": "CC(C)N(C(=O)n1oc(=O)n(-c2cc(Cl)ccc2Cl)c1=O)c1ccc(F)cc1", "recorded measurement": 0}
{"smiles": "Cc1ccccc1-n1c(=O)on(C(=O)N(c2cc(OC(C)C)c(Cl)cc2Cl)C(C)C)c1=O", "recorded measurement": 0}

----------
# Tested on: wheat
# assay comment: Test B pre/postemergence wheat
# Type: in vivo, Triticum aestivum
# run parameters: Preemergence, Rate 62 g/ha; scale of 0 to 10 where 0 is no effect and 10 is complete control

{"smiles": "CC(C)N(C(=O)n1oc(=O)n(CC2=CCCCC2)c1=O)c1ccccc1", "target under test": "wheat", "Plant response rating, Wheat": 0}
{"smiles": "CC[Si](C)(C)Cn1c(=O)on(C(=O)N(c2ccc(F)cc2)C(C)C)c1=O", "target under test": "wheat", "Plant response rating, Wheat": 0}
{"smiles": "COCCOCn1c(=O)on(C(=O)N(c2ccc(F)cc2F)C(C)C)c1=O", "target under test": "wheat", "Plant response rating, Wheat": 3}
{"smiles": "CC(C)N(C(=O)n1oc(=O)n(CCC2OCCCO2)c1=O)c1ccc(F)cc1F", "target under test": "wheat", "Plant response rating, Wheat": 0}

----------
Catalogue of Plant response rating, Redroot pigweed readings, one per entry.
# Test system: pigweed
# assay comment: Test B pre/postemergence pigweed
# Format: in vivo, Amaranthus retroflexus
# run parameters: Rate 250 g/ha, Postemergence; scale 0 to 10, 0 is no effect, 10 is complete control
measurement label: Plant response rating, Redroot pigweed

{"compound": "CC(C)N(C(=O)n1oc(=O)n(N(C)c2ccccc2)c1=O)c1ccc(F)cc1", "recorded measurement": 0}
{"compound": "CC(C)N(C(=O)n1oc(=O)n(Cc2ccccc2)c1=O)c1ccccc1", "recorded measurement": 2}
{"compound": "CC(C)N(C(=O)n1oc(=O)n(C(C)(C)C)c1=O)c1ccccc1", "recorded measurement": 2}
{"compound": "CC(C)N(C(=O)n1oc(=O)n(C(C)c2ccccc2)c1=O)c1ccc(Cl)cc1 (stereo not drawn)", "recorded measurement": 0}
{"compound": "CC(C)N(C(=O)n1oc(=O)n(C)c1=O)c1ccc(Cl)cc1", "recorded measurement": 5}
{"compound": "CC(C)N(C(=O)n1oc(=O)n(C(C)C)c1=O)c1ccc(F)cc1F", "recorded measurement": 8}

----------
# Tested on: crabgrass
# assay comment: Test B pre/postemergence crabgrass
# Assay type: in vivo, Digitaria sanguinalis
# run parameters: Preemergence, Rate 500 g/ha; scale 0 to 10 (0 no effect, 10 complete control)
Catalogue of Crabgrass plant response rating readings, one per entry.

{"compound": "CC(C)N(C(=O)n1oc(=O)n(N(C)c2ccccc2)c1=O)c1ccc(F)cc1 [Compound 177]", "target under test": "crabgrass", "Crabgrass plant response rating": 9}
{"compound": "CC(C)N(C(=O)n1oc(=O)n([C@@H](C)c2ccccc2)c1=O)c1ccccc1 [Compound 173]", "target under test": "crabgrass", "Crabgrass plant response rating": 9}
{"compound": "CC(C)N(C(=O)n1oc(=O)n(C(C)(C)C)c1=O)c1ccccc1 [Compound 129]", "target under test": "crabgrass", "Crabgrass plant response rating": 9}
{"compound": "CC(C)N(C(=O)n1oc(=O)[nH]c1=O)c1ccc(F)cc1 [Compound 164]", "target under test": "crabgrass", "Crabgrass plant response rating": 4}
{"compound": "CC(C)N(C(=O)n1oc(=O)n(CC2CO2)c1=O)c1ccc(F)cc1 (centres unmarked) [Compound 188]", "target under test": "crabgrass", "Crabgrass plant response rating": 0}

----------
# Tested on: morningglory
# assay comment: Test B pre/postemergence morningglory
# Format: in vivo, Ipomoea hederacea
# run parameters: Preemergence, Rate 250 g/ha; scale of 0 to 10 where 0 is no effect and 10 is complete control
# Description: […] At the same time, these crop and weed species were also treated with postemergence applications of test chemicals formulated in the same manner. […] Treated plants and controls were maintained in a greenhouse for twelve to sixteen days, after which all species were compared to controls and visually evaluated. […]

{"compound": "CC(Cl)=CCn1c(=O)on(C(=O)N(c2ccc(F)cc2)C(C)C)c1=O [Compound 285]", "target under test": "morningglory", "Morningglory plant response rating": 0}
{"compound": "CC(C)N(C(=O)n1oc(=O)n(C2(C)CC2)c1=O)c1ccc(F)cc1 [Compound 362]", "target under test": "morningglory", "Morningglory plant response rating": 6}
{"compound": "CC(C)N(C(=O)n1oc(=O)n(N2CCOCC2)c1=O)c1ccc(F)cc1F [Compound 384]", "target under test": "morningglory", "Morningglory plant response rating": 0}
{"compound": "CC(=O)OCn1c(=O)on(C(=O)N(c2ccc(F)cc2)C(C)C)c1=O [Compound 292]", "target under test": "morningglory", "Morningglory plant response rating": 0}

----------
# System: purple nutsedge
# assay comment: Test B pre/postemergence purple nutsedge
# Format: in vivo, Cyperus rotundus
# run parameters: Preemergence, Rate 500 g/ha; scale 0 to 10, 0 is no effect, 10 is complete control

{"compound": "Cc1nc(Cl)sc1C(C)n1c(=O)on(C(=O)N(c2ccccc2)C(C)C)c1=O (stereo not drawn)", "Nutsedge plant response rating": 0}
{"compound": "CC(C)N(C(=O)n1oc(=O)n(CCC(F)(F)F)c1=O)c1ccc(F)cc1", "Nutsedge plant response rating": 0}
{"compound": "CCN(C(=O)n1oc(=O)n(C2CCCCCC2)c1=O)C1CCCCC1", "Nutsedge plant response rating": 0}
{"compound": "C=C(C)CCn1c(=O)on(C(=O)N(c2ccccc2)C(C)C)c1=O", "Nutsedge plant response rating": 0}
{"compound": "CC(C)N(C(=O)n1oc(=O)n(CCC#N)c1=O)c1ccccc1", "Nutsedge plant response rating": 5}
{"compound": "Cc1nc(Cl)sc1C(C)n1c(=O)on(C(=O)N(c2ccc(F)cc2)C(C)C)c1=O (stereo not drawn)", "Nutsedge plant response rating": 0}

----------
Catalogue of Blackgrass plant response rating readings, one per entry.
# Test system: blackgrass
# assay comment: Test B pre/postemergence blackgrass
# Assay type: in vivo, Alopecurus myosuroides
# run parameters: Preemergence, Rate 250 g/ha; scale 0 to 10, 0 is no effect, 10 is complete control
measurement label: Blackgrass plant response rating

{"compound": "CC(C)N(C(=O)n1oc(=O)n(C2CCCC(C(F)(F)F)C2)c1=O)c1ccc(F)cc1 (centres unmarked)", "recorded measurement": 5}
{"compound": "CCN(Cc1ccncc1)C(=O)n1oc(=O)n(C(C)C)c1=O", "recorded measurement": 4}
{"compound": "CC(C)N(C(=O)n1oc(=O)n(CC2=CCCN(C)C2)c1=O)c1ccccc1", "recorded measurement": 0}
{"compound": "CC(C)N(C(=O)n1oc(=O)n(CCC#N)c1=O)c1ccccc1", "recorded measurement": 0}
{"compound": "COCCOCn1c(=O)on(C(=O)N(c2ccc(F)cc2F)C(C)C)c1=O", "recorded measurement": 7}
{"compound": "CCN(C(=O)n1oc(=O)n(N(C)c2ccccc2)c1=O)C1CCCCC1", "recorded measurement": 0}
{"compound": "CC(C)N(C(=O)n1oc(=O)n(CC2CO2)c1=O)c1ccc(F)cc1 (centres unmarked)", "recorded measurement": 0}
{"compound": "COc1ccccc1Cn1c(=O)on(C(=O)N(c2ccc(F)cc2)C(C)C)c1=O", "recorded measurement": 5}
{"compound": "CN(C(=O)n1oc(=O)n(Cc2ccccc2)c1=O)c1ccccc1", "recorded measurement": 0}
{"compound": "C=CC(OC)n1c(=O)on(C(=O)N(c2ccc(F)cc2)C(C)C)c1=O (centres unmarked)", "recorded measurement": 2}
{"compound": "CC(C)N(C(=O)n1oc(=O)n(C(C)(C)C)c1=O)c1ccccc1", "recorded measurement": 2}

----------
# Test system: pigweed
# assay comment: Test B pre/postemergence pigweed
# Type: in vivo, Amaranthus retroflexus
# run parameters: Postemergence, Rate 125 g/ha; scale of 0 to 10 where 0 is no effect and 10 is complete control
Catalogue of Redroot pigweed plant response rating readings, one per entry.
measurement label: Redroot pigweed plant response rating

{"molecule": "CC(C)N(C(=O)n1oc(=O)n(Cc2nnc(Cl)s2)c1=O)c1ccc(F)cc1", "measurement label": "Redroot pigweed plant response rating", "recorded measurement": 0}
{"molecule": "CC(C)N(C(=O)n1oc(=O)n(CC(F)F)c1=O)c1ccc(Cl)cc1", "measurement label": "Redroot pigweed plant response rating", "recorded measurement": 2}
{"molecule": "C#CCCn1c(=O)on(C(=O)N(c2ccc(F)cc2)C(C)C)c1=O", "measurement label": "Redroot pigweed plant response rating", "recorded measurement": 9}
{"molecule": "CCOC(=O)CC(C(=O)OCC)n1c(=O)on(C(=O)N(c2ccc(Cl)cc2)C(C)C)c1=O (stereo not shown)", "measurement label": "Redroot pigweed plant response rating", "recorded measurement": 0}
